- TEST SUMMARY: in vivo
- EXPERIMENTAL SETUP: mouse, ip, LD50, mice, female, fiducial limits 95%

{"SUBSTANCE SMILES": "CC1=CC(=O)[C@@H]2C[C@H]1C2(C)C", "LD50 (mg/kg)": 325}

----------
- TEST SUMMARY: Acute toxicity in rabbits (LD50, Litchfield and Wilcoxon)
- Assay type: in vivo
- EXPERIMENTAL SETUP: rabbit, in vivo, ip, male, fiducial limits 95%
READOUT KIND: LD50 (mg/kg)

{"SUBSTANCE SMILES": "CC1=CC(=O)[C@@H]2C[C@H]1C2(C)C", "VALUE": 310}

----------
- TEST SUMMARY: in vivo
- EXPERIMENTAL SETUP: mouse, po, LD50, mice, female, fiducial limits 95%
READOUT KIND: LD50 (mg/kg)

{"COMPOUND": "CC1=CC(=O)[C@@H]2C[C@H]1C2(C)C [Verbenone, verbenone]", "UNIT DESCRIPTOR": "mg/kg", "VALUE": 1530}

----------
- TEST SUMMARY: Acute toxicity in rats (LD50, Litchfield and Wilcoxon)
- EXPERIMENTAL SETUP: rat, in vivo, iv, intravenously
READOUT KIND: LD50 (mg/kg)

{"COMPOUND": "C=C1C(O)CC2CC1C2(C)C (stereo not shown)", "VALUE": 140}

----------
- TEST SUMMARY: in vivo
- EXPERIMENTAL SETUP: mouse, ip, LD50, mice, male, fiducial limits 95%

{"SUBSTANCE SMILES": "CC1=CC(=O)[C@@H]2C[C@H]1C2(C)C", "UNIT DESCRIPTOR": "mg/kg", "LD50": 361}

----------
- TEST SUMMARY: Acute toxicity in rabbits (LD50, Litchfield and Wilcoxon)
- Assay type: in vivo
- EXPERIMENTAL SETUP: rabbit, in vivo, ip, female, fiducial limits 95%
READOUT KIND: LD50 (mg/kg)

{"MOLECULE": "CC1=CC(=O)[C@@H]2C[C@H]1C2(C)C [Verbenone, verbenone]", "READOUT KIND": "LD50", "VALUE": 232}

Data provenance: patent US4190675A
